Biological target: T1, rat IL-25 expressed with a C-terminal myc-myc-hexahistidine tag (rat)
T1 construct: also called Rat IL-25-MMH
T1 chain: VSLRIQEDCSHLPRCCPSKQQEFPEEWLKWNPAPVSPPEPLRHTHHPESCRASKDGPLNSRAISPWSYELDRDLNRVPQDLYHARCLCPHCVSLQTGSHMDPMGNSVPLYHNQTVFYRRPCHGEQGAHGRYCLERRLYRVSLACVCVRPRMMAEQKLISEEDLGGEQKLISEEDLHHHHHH
Experiment: SPR Biacore, antibody captured, 25C;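 note: purified anti-IL-25 antibodies were tested by real-time surface plasmon resonance on a Biacore 4000, with rate constants obtained from sensorgram fits to a 1:1 binding model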
PROPERTY: t½ (h)
Numeric answer only, unit h assumed.

Query H4H10876P (antibody, human IgG4, V domains shown, H4H prefix = human IgG4 Fc) VH: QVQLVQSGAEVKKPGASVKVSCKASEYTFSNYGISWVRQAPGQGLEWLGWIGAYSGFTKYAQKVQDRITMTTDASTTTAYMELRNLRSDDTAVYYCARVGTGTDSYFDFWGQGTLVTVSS VL: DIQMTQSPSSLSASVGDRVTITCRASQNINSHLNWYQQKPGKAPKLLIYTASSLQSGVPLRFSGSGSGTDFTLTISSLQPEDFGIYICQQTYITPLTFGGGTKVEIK yields t½ of 2.18

Query H4H10871P (antibody, human IgG4, V domains shown, H4H prefix = human IgG4 Fc) VH: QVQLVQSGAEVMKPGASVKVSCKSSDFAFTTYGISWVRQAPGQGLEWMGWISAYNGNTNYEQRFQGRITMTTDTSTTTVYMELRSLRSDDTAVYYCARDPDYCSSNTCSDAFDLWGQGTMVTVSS VL: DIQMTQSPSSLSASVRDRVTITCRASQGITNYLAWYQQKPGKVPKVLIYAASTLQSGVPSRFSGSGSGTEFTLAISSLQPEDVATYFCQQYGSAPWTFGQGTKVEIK yields t½ of 2.67

Query H4H10905P (antibody, human IgG4, V domains shown, H4H prefix = human IgG4 Fc) VH: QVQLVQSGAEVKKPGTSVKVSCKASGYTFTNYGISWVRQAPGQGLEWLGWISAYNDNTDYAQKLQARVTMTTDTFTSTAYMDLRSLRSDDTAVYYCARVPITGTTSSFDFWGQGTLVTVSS VL: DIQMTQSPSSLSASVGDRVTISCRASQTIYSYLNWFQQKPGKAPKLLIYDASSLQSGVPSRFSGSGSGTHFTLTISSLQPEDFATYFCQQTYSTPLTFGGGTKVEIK yields t½ of 1.42

The values you see were collected from patent US20160083466A1.
